test: Pharmacokinetic evaluation in ICR mice (intravenous and gavage); assay type: in vivo; settings: mouse, plasma, po, Gavage Administration (10 mg/kg)
The reader will find reported Cmax values listed item by item below.
Use ng/mL as the unit, but write only the number.

Here are 3 compounds together with their reported answers.
1) COc1ccc(F)c(N2CCC(c3oc4cc([C@@H](CC(=O)O)C5CC5)ccc4c3-c3cccc(C(C)(C)C)c3)CC2)c1 = 4950
2) COc1cccc(N2CCC(c3oc4cc([C@@H](CC(=O)O)C5CC5)ccc4c3-c3cnn(C(C)(C)C)c3)CC2)c1 = 8600
3) COc1ccc(F)c(N2CCC(c3oc4cc(C(CC(=O)O)C5CC5)ccc4c3-c3ccc(C(C)(C)C)cc3)CC2)c1 (stereo not shown) = 3470

Please examine the following record next.
Exercise: // lookup Cmax for `COc1cccc(N2CCC(c3oc4cc([C@@H](CC(=O)O)C5CC5)ccc4c3-c3cccc(C(C)(C)C)c3)CC2)c1`
Key: 6580

Values compiled from patent EP4682145A1.
